measurement target: von Hippel-Lindau disease tumor suppressor/GTPase KRas (Homo sapiens, UniProt P01116+P40337, G12D)
Sequence (P01116 whole entry G12D, stated change not applied): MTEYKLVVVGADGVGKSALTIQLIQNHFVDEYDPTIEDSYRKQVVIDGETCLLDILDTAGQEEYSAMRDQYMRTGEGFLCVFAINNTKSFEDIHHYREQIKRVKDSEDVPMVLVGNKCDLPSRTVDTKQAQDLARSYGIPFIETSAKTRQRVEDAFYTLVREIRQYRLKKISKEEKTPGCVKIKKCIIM
Sequence (P40337 whole entry, stated change not applied): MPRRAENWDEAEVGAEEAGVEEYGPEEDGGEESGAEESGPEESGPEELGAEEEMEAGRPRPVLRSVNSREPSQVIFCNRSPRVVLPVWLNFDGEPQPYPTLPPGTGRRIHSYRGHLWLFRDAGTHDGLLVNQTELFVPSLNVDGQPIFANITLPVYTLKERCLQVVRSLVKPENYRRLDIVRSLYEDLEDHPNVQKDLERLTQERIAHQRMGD
test description: PROTAC activity at VHL/KRAS G12D mutant in human ASPC1 cells assessed as induction of protein degradation incubated for 24 hrs by Western blot analysis
Assay type: cell-based
condition set: read-out: DC50
Task for the reader: assign each of the following molecules its reported DC50.
All answers are understood in nM, so give the number only.

Task: I have this molecule here, CCc1cccc2cc(O)cc(-c3ncc4c(N5C[C@H]6CC[C@@H](C5)N6)nc(OC[C@@H]5CCCN5CCCCCCCCC(=O)N[C@H](C(=O)N5C[C@H](O)C[C@H]5C(=O)N[C@@H](C)c5ccc(-c6scnc6C)cc5)C(C)(C)C)nc4c3F)c12 , and I need its recorded DC50.
Result: 165

Task: I have this molecule here, CCc1cccc2cc(O)cc(-c3ncc4c(N5C[C@H]6CC[C@@H](C5)N6)nc(OC[C@@H]5CCCN5CCCCOCC(=O)N[C@H](C(=O)N5C[C@H](O)C[C@H]5C(=O)N[C@@H](C)c5ccc(-c6scnc6C)cc5)C(C)(C)C)nc4c3F)c12 , and I need its recorded DC50.
Result: 164
